Source of measurements: patent US20190382481A1

# experimental.system: T1, Cyno CD33 full length (cynomolgus monkey)
# T1 construct: Stably expressed on HEK293F cells by lentiviral transduction; also called Cyno CD33 (on HEK293F cells)
# T1 sequence (chain, as listed by the source limits assumed): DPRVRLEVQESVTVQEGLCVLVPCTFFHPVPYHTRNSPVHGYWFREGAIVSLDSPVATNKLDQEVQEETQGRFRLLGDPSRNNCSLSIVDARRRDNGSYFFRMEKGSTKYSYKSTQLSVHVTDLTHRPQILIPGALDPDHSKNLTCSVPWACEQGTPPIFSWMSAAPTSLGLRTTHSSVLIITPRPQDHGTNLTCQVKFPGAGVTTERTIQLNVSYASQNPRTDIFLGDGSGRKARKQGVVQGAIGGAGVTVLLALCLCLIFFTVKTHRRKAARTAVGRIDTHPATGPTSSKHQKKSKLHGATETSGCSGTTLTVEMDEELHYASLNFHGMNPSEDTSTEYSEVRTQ
# assay.overview: flow cytometry on HEK293F cells expressing cyno CD33
Hi there, I'd appreciate the recorded mean fluorescence intensity at 60 nM mAb for every entry that follows.
Field: numeric (MFI). Do not append units.

Q: Specify reported mean fluorescence intensity at 60 nM mAb for the binder shown: C33B909 (antibody, V domains shown, OMNIMouse mAb; HC C33H249, LC C33L115 (same IDs as C33B901); the campaign was cloned into both IgG1 and IgG4 PAA) VH: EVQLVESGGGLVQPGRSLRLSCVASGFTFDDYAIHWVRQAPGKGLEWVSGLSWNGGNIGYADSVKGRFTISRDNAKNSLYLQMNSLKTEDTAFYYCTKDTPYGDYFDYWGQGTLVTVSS VL: DIQMTQSPSSVWASVGDRVTITCRASQGISSWLAWYQQQPGKAPNLLIYRSSSLQSGVPSRFSGSGSGTDFTLTISSLQPEDFATYYCQQDNSFPYTFGQGTKLEIKR
A: 180

Q: Specify reported mean fluorescence intensity at 60 nM mAb for the binder shown: C33B915 (antibody, V domains shown, OMNIMouse mAb; HC C33H255, LC C33L121 (same IDs as C33B907); also called C33F553) VH: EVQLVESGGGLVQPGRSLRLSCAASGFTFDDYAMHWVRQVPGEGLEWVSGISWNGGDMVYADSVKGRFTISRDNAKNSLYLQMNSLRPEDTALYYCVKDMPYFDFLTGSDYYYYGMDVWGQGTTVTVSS VL: SYELTQPPSVSVSPGQTASITCSGDNLGNEHVCWYHQKPGQSPVLVIYQNNKRPSGIPERFSGSNSGNTATLSISGTQATDEADYYCQAWDSTTAVFGGGTKLTVLG
A: 37500

Q: Specify reported mean fluorescence intensity at 60 nM mAb for the binder shown: C33B910 (antibody, V domains shown, OMNIMouse mAb; HC C33H250, LC C33L116 (same IDs as C33B902)) VH: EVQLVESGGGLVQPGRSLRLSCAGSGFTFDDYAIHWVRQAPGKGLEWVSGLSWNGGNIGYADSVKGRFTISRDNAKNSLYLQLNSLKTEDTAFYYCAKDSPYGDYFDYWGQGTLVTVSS VL: DIQMTQSPSSEWASVGDRVTITCRASQGISSWLAWYQQKPGKAPKLLIYGASSWQSGVPSRFSGSGSGTDFTLTISSLQPEDFATYYCQQDNSFPYTFGQGTKLEIKR
A: 202
